target: UniProtKB P06213; assay: Kinase panel profiling at 1 µmol/L (MSA or IMAP), percentage inhibition; assay type: biochemical; details: kinase INSR; 1 µmol/L single concentration; read-out: %-inhibition at 1 µmol/L, INSR
Sequence (P06213 28-1382): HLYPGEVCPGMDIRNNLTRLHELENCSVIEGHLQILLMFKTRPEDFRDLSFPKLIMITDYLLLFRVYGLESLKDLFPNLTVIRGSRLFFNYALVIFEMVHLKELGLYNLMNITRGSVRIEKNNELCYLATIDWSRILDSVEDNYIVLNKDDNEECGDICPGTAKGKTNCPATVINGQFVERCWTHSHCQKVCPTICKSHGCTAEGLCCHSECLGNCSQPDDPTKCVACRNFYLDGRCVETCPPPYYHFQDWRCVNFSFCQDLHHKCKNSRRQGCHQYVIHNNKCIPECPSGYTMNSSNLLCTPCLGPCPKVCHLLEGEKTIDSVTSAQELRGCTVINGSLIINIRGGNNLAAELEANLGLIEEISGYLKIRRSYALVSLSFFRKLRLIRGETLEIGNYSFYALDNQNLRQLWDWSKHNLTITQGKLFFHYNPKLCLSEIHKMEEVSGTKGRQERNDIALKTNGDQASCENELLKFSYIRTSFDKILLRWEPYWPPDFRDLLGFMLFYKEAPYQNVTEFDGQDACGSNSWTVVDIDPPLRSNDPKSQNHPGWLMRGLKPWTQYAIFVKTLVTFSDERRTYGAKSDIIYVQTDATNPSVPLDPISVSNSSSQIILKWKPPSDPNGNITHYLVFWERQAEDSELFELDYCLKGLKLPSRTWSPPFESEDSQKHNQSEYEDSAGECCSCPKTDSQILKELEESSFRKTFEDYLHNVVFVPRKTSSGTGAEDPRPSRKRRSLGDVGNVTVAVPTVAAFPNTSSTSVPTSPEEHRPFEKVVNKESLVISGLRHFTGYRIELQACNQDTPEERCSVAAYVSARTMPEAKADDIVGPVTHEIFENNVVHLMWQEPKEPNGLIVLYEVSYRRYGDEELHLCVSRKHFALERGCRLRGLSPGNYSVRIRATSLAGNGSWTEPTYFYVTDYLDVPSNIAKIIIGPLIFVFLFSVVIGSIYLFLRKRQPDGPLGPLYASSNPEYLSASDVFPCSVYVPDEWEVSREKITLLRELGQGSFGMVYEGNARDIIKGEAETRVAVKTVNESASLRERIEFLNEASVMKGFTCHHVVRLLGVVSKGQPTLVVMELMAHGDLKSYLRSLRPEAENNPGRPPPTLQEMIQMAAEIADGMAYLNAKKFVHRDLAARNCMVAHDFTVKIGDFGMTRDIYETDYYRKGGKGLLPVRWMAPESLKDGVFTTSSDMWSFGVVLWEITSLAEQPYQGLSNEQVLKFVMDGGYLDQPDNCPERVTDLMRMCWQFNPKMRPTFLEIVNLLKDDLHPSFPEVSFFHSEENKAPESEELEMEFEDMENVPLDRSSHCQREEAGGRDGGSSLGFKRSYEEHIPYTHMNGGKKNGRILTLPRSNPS
property: inhibition at 1 µM (%)
Numeric only. Scale: %

For this compound ( `Cn1cnc2c(F)c(Nc3ccc(Br)cc3F)c(C(=O)NOCCO)cc21` ), measured inhibition at 1 µM is 6

For this compound ( `C=CC(=O)N1CCC([C@@H]2CCNc3c(C(N)=O)c(-c4ccc(Oc5ccccc5)cc4)nn32)CC1` ), measured inhibition at 1 µM is 4

For this compound ( `CCN1CCN(c2ccc(Nc3cc(N(C)C(=O)Nc4c(Cl)c(OC)cc(OC)c4Cl)ncn3)cc2)CC1` ), measured inhibition at 1 µM is 17

For this compound ( `Cn1cnc2c(F)c(Nc3ccc(Br)cc3Cl)c(C(=O)NOCCO)cc21` ), measured inhibition at 1 µM is 3

For this compound ( `Cn1cc(-c2cc3c(N4CCN(c5ncc([C@@](C)(N)c6ccc(F)cc6)cn5)CC4)ncnn3c2)cn1` ), measured inhibition at 1 µM is 4.71

For this compound ( `Cc1nc(NC(=O)N2CCC[C@H]2C(N)=O)sc1-c1ccnc(C(C)(C)C(F)(F)F)c1` ), measured inhibition at 1 µM is -2.57

For this compound ( `CO[C@]1(C(=O)N[C@@H](C)c2ccc(-n3cc(F)cn3)nc2)CC[C@H](c2nc(C)cc(Nc3cc(C)[nH]n3)n2)CC1` ), measured inhibition at 1 µM is 10

For this compound ( `COC(=O)N[C@@H](C)CNc1nccc(-c2cn(C(C)C)nc2-c2cc(Cl)cc(NS(C)(=O)=O)c2F)n1` ), measured inhibition at 1 µM is 9

For this compound ( `CCN1C(=O)N(c2c(F)c(OC)cc(OC)c2F)Cc2cnc3[nH]c(CN4CCOCC4)cc3c21` ), measured inhibition at 1 µM is 9

For this compound ( `C[C@H]1Oc2cc(cnc2N)-c2c(nn(C)c2C#N)CN(C)C(=O)c2ccc(F)cc21` ), measured inhibition at 1 µM is 64

For this compound ( `Cc1cc(Nc2ncnc3ccc(NC4=NC(C)(C)CO4)cc23)ccc1Oc1ccn2ncnc2c1` ), measured inhibition at 1 µM is 3

For this compound ( `CCc1nc(C(N)=O)c(Nc2ccc(N3CCC(N4CCN(C)CC4)CC3)c(OC)c2)nc1NC1CCOCC1` ), measured inhibition at 1 µM is 100

====

Target: panel of 255 wild-type kinases (Homo sapiens, UniProt P53778)
Sequence (P53778 1-367): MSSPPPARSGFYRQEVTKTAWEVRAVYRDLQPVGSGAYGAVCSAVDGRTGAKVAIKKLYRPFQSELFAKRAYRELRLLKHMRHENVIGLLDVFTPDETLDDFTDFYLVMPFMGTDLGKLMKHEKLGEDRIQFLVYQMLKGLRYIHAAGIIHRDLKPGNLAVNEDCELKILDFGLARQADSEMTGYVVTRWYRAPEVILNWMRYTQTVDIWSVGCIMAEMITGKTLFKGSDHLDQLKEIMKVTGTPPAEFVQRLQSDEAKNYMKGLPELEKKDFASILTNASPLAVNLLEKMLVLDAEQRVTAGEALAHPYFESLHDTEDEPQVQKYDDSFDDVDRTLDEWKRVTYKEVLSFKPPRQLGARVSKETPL
Assay: Kinase panel profiling at 1 µmol/L (MSA or IMAP), percentage inhibition
Format: biochemical
Details: p38γ; 1 µmol/L single concentration; read-out: %-inhibition, p38γ
Quick list: inhibition at 1 µM per entry.
Numeric only. Scale: %

For this compound ( `C[C@H](Nc1ncnc2nc[nH]c12)c1cc2cccc(Cl)c2c(=O)n1-c1ccccc1` ), measured inhibition at 1 µM is -4

====

molecular target: panel of 255 wild-type kinases (Homo sapiens, UniProt Q8TF76); test: Kinase panel profiling at 1 µmol/L (MSA or IMAP), percentage inhibition; type: biochemical; settings: kinase Haspin; 1 µmol/L single concentration; read-out: %-inhibition at 1 µmol/L, Haspin
Sequence (Q8TF76 whole entry): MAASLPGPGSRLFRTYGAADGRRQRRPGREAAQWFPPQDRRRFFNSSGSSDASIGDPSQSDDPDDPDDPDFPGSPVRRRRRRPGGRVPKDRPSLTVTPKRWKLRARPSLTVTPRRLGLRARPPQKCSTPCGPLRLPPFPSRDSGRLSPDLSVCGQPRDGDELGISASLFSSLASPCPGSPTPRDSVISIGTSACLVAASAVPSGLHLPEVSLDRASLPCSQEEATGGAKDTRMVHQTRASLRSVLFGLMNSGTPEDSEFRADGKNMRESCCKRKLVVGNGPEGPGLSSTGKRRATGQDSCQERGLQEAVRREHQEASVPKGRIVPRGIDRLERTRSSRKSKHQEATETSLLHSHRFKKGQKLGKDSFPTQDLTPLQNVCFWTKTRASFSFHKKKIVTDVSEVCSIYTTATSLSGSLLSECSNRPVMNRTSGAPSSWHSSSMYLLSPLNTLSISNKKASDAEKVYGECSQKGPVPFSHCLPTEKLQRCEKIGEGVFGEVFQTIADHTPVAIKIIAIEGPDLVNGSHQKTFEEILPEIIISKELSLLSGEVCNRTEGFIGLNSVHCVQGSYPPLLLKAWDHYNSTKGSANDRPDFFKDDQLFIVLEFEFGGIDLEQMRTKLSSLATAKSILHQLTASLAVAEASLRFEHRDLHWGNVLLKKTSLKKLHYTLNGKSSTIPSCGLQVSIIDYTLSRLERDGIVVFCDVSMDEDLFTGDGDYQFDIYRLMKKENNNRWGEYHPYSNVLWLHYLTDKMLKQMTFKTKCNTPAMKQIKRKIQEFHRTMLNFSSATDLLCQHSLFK
Quick list: inhibition at 1 µM per entry.
Numeric only. Scale: %

FC(F)(F)c1ccc(CNc2ccc(Cc3c[nH]c4ncc(Cl)cc34)cn2)cn1	6.52
Cc1cc(Nc2ncnc3ccc(NC4=NC(C)(C)CO4)cc23)ccc1Oc1ccn2ncnc2c1	0.893
C[C@H](Nc1ncnc2nc[nH]c12)c1cc2cccc(Cl)c2c(=O)n1-c1ccccc1	2

// moving on: another record for inhibition at 1 µM
For this compound ( `O=C(Nc1cnn2ccc(N3CCC[C@@H]3c3cc(F)ccc3F)nc12)N1CC[C@H](O)C1` ), measured inhibition at 1 µM is -4.46

====

target: panel of 255 wild-type kinases (Homo sapiens); assay: Kinase panel profiling at 1 µmol/L (MSA or IMAP), percentage inhibition; type: biochemical; settings: kinase PRKX; 1 µmol/L single concentration; read-out: %-inhibition at 1 µmol/L, PRKX
Quick list: inhibition at 1 µM per entry.
Numeric only. Scale: %

Previously resolved entries follow.
CCN1C(=O)N(c2c(F)c(OC)cc(OC)c2F)Cc2cnc3[nH]c(CN4CCOCC4)cc3c21	-1.75
Cc1cc(Nc2ncnc3ccc(NC4=NC(C)(C)CO4)cc23)ccc1Oc1ccn2ncnc2c1	-1.54
FC(F)(F)c1ccc(CNc2ccc(Cc3c[nH]c4ncc(Cl)cc34)cn2)cn1	15

For this molecule ( `Cn1cnc2c(F)c(Nc3ccc(Br)cc3Cl)c(C(=O)NOCCO)cc21` ), measured inhibition at 1 µM is -4.53

====

Quick list: inhibition at 1 µM per entry.
target: panel of 255 wild-type kinases (Homo sapiens, UniProt O15146); assay: Kinase panel profiling at 1 µmol/L (MSA or IMAP), percentage inhibition; assay type: biochemical; details: MUSK; 1 µmol/L single concentration; read-out: %-inhibition, MUSK
Sequence (O15146 24-869): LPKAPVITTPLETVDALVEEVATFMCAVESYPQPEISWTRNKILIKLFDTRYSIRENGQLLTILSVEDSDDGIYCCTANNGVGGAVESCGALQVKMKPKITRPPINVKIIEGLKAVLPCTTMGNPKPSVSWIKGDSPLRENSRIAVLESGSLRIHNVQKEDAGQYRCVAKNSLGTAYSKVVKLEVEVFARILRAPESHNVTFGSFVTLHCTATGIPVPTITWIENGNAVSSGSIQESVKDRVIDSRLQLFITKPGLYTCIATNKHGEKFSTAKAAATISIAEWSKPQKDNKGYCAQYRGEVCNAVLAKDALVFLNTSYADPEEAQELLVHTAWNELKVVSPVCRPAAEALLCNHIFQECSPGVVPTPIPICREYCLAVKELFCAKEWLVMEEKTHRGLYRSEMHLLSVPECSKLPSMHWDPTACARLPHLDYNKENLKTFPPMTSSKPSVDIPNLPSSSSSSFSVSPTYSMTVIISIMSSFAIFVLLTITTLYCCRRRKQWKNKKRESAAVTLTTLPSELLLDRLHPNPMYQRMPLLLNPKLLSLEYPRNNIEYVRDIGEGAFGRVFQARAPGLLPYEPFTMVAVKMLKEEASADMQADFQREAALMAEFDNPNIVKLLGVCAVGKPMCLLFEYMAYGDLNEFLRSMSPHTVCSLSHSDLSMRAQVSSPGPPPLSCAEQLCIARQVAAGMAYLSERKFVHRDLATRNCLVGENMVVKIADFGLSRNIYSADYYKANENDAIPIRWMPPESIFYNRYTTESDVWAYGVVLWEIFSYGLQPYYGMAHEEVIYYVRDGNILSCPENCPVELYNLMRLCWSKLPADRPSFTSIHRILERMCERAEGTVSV

O=C(Nc1cnn2ccc(N3CCC[C@@H]3c3cc(F)ccc3F)nc12)N1CC[C@H](O)C1	32%
Cc1cc(Nc2ncnc3ccc(NC4=NC(C)(C)CO4)cc23)ccc1Oc1ccn2ncnc2c1	2.26%
C[C@H]1Oc2cc(cnc2N)-c2c(nn(C)c2C#N)CN(C)C(=O)c2ccc(F)cc21	47%

// moving on: another record for inhibition at 1 µM
For this compound ( `Cn1cnc2c(F)c(Nc3ccc(Br)cc3Cl)c(C(=O)NOCCO)cc21` ), measured inhibition at 1 µM is 7%

====

molecular target: panel of 255 wild-type kinases (Homo sapiens); assay: Kinase panel profiling at 1 µmol/L (MSA or IMAP), percentage inhibition; assay type: biochemical; settings: kinase FES; 1 µmol/L single concentration; read-out: %-inhibition at 1 µmol/L, FES
property: inhibition at 1 µM
Number plus unit, in that order.

Previously resolved entries follow.
CO[C@]1(C(=O)N[C@@H](C)c2ccc(-n3cc(F)cn3)nc2)CC[C@H](c2nc(C)cc(Nc3cc(C)[nH]n3)n2)CC1 [pralsetinib]	8%
Cc1cc(Nc2ncnc3ccc(NC4=NC(C)(C)CO4)cc23)ccc1Oc1ccn2ncnc2c1 [tucatinib]	1.74%
CCN1CCN(c2ccc(Nc3cc(N(C)C(=O)Nc4c(Cl)c(OC)cc(OC)c4Cl)ncn3)cc2)CC1 [infigratinib]	20%

// moving on: another record for inhibition at 1 µM
For this compound ( COc1cc2ncnc(Nc3ccc(F)c(Cl)c3)c2cc1NC(=O)/C=C/CN1CCCCC1 [dacomitinib] ), measured inhibition at 1 µM is 1.56%

====

Quick list: inhibition at 1 µM per entry.
target: panel of 255 wild-type kinases (Homo sapiens, UniProt P08581); experiment: Kinase panel profiling at 1 µmol/L (MSA or IMAP), percentage inhibition; type: biochemical; details: MET; 1 µmol/L single concentration
Sequence (P08581 25-1390): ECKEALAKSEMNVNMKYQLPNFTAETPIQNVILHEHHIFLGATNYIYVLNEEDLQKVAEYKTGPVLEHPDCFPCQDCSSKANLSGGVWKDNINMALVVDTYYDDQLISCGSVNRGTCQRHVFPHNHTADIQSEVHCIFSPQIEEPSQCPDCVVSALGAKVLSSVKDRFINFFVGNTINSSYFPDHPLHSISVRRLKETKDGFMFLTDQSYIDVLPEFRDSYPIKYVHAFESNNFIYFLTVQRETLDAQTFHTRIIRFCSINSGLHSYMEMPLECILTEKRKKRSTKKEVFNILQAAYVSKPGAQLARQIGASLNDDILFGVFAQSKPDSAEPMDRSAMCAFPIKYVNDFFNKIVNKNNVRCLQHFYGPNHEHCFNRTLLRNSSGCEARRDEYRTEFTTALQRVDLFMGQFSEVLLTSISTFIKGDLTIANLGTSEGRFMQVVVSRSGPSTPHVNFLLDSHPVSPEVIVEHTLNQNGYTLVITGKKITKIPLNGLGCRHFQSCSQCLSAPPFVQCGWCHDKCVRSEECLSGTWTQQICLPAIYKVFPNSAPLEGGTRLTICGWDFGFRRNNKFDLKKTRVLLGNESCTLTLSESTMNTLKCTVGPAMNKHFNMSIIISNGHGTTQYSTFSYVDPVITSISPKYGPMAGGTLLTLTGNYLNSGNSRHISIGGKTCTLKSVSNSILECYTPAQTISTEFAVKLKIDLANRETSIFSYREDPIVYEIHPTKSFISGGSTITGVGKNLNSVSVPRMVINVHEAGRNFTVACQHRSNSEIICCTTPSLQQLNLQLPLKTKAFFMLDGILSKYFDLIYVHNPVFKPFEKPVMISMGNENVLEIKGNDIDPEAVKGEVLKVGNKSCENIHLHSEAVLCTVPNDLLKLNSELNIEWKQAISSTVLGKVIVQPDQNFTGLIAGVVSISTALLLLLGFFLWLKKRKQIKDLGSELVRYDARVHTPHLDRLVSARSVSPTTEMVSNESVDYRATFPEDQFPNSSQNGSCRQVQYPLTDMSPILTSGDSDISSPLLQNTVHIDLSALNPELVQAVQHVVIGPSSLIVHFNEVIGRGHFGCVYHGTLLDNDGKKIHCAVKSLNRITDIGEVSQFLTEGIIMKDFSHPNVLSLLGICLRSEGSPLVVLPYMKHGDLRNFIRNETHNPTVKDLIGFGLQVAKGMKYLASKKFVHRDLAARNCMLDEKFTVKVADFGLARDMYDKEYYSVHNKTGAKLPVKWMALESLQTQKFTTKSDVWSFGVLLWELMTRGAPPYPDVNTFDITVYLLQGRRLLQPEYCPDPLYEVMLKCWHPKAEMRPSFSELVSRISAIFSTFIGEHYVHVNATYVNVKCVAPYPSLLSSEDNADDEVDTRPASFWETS
Numeric only. Scale: %

CCn1c(=O)c(-c2cc(NC(=O)Nc3ccccc3)c(F)cc2Br)cc2cnc(NC)cc21	8

For this compound ( `CN1CCN(c2ccc(C(=O)Nc3n[nH]c4ccc(Cc5cc(F)cc(F)c5)cc34)c(NC3CCOCC3)c2)CC1` ), measured inhibition at 1 µM is 24

For this compound ( `C[C@H]1Oc2cc(cnc2N)-c2c(nn(C)c2C#N)CN(C)C(=O)c2ccc(F)cc21` ), measured inhibition at 1 µM is 4.66

For this compound ( `Cc1nc(NC(=O)N2CCC[C@H]2C(N)=O)sc1-c1ccnc(C(C)(C)C(F)(F)F)c1` ), measured inhibition at 1 µM is -1

For this compound ( `C[C@H](Nc1ncnc2nc[nH]c12)c1cc2cccc(Cl)c2c(=O)n1-c1ccccc1` ), measured inhibition at 1 µM is 1.63

For this compound ( `COc1ccc(CN2C3CC2CN(c2ccc(-c4cc(OCC(C)(C)O)cn5ncc(C#N)c45)cn2)C3)cn1` ), measured inhibition at 1 µM is 23

For this compound ( `C=CC(=O)N1CCC([C@@H]2CCNc3c(C(N)=O)c(-c4ccc(Oc5ccccc5)cc4)nn32)CC1` ), measured inhibition at 1 µM is -2.35
